- Assay details: NCI Yeast Anticancer Drug Screen. Data for the rad50 strain (AID 155);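 further: 0% = growth of vehicle-only cultures of the same strain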
- Conditions used: S. cerevisiae rad50 strain growth inhibition; at 50.0 µM (retest, dose inferred, filed as 5.0)
Compounds without any hit were thinned out: in the full panel of roughly 79,000, 15% have a hit. Active and inactive are the calls of the source. No stated cut-off is given here; in the data, active means growth inhibition above about 70%; inactive means the rest.
Choose the fitting class; nothing outside label 1 = active, label 0 = inactive is accepted.

INPUT: GET /call?item= `CCN(CC)CCNc1n[n+]([O-])c2cc([N+](=O)[O-])ccc2[n+]1[O-]` returns the recorded outcome of this test.
OUTPUT: label 1

INPUT: Same for O=C1C=CC(=O)C(C2OC(=O)C(Br)=C2Br)=C1 (centres undefined)
OUTPUT: label 0

INPUT: Now consider `O=C(C(=Cc1ccccc1)C(=O)c1ccccc1)c1ccccc1` and answer again.
OUTPUT: label 1

INPUT: Please give the result for `N#Cc1c(/N=C/c2ccccc2Cl)sc2c1CCC2` too.
OUTPUT: label 0

INPUT: Input `CS(=O)(=O)OCCN(CCOS(C)(=O)=O)c1ccc(C=Nc2ccc(-c3csc(Cc4ccccc4)n3)cc2)c(Cl)c1`
OUTPUT: label 1

INPUT: Further, for `Nc1ccc2c3c(cccc13)C(=O)N(CCCBr)C2=O` ?
OUTPUT: label 1

INPUT: Let us now turn to `COc1ccc(/C=C2\C=Nc3ccccc32)cc1`
OUTPUT: label 0

INPUT: One more molecule: CCCCCCCCC(Sc1n[nH]c(=O)[nH]c1=O)C(=O)OCC (centres undefined)
OUTPUT: label 0

INPUT: Thanks! And `O=C(CCl)Nc1ccc(C(=O)N/N=C/c2ccc(Cl)cc2)cc1` ?
OUTPUT: label 1

INPUT: And the next one, `C1=C(c2ccccc2)N(CCc2ccccc2)C(c2ccccc2)=CN1Cc1ccccc1` ?
OUTPUT: label 1

INPUT: # iterate: COC1OC2COC(c3ccccc3)OC2C(O)C1OS(=O)(=O)c1ccc(C)cc1 (centres undefined)
OUTPUT: label 0

INPUT: Thanks! And `O=C(O)c1ccc(C(c2ccccc2)c2ccccc2)cc1` ?
OUTPUT: label 1

INPUT: Record: `CC(=O)c1ccc(N)cc1`
OUTPUT: label 1

INPUT: Can you check `Cc1cc(NCCCCCCCNc2cc(C)nc3cc([N+](=O)[O-])ccc23)c2ccc([N+](=O)[O-])cc2n1` next?
OUTPUT: label 1

INPUT: Thanks! And `Cc1cc(C)[nH]c(=O)n1` ?
OUTPUT: label 0

INPUT: Lookup Cc1ccc2c(c1)C1(C)OC(C=CC1=O)O2 (centres undefined)
OUTPUT: label 1

INPUT: // same read-out, input: `Oc1ccccc1C=Nc1ccccc1O`
OUTPUT: label 0

INPUT: Next record, please: CC12CCC3c4ccc(O)cc4CCC3C1CCC2S (centres undefined)
OUTPUT: label 1

INPUT: Repeat for the following molecule: `Clc1ccc(CNCCCNCc2ccc(Cl)cc2)cc1`
OUTPUT: label 0

INPUT: Also need OCC(O)C(O)C(O)C(/C=N/Nc1ccccc1)=N/Nc1ccccc1 (centres undefined) , thanks.
OUTPUT: label 0

INPUT: Please give the result for CC(=O)OCC1OC(n2c(=S)n(-c3ccccc3)c(=O)c3ccccc32)C(OC(C)=O)C(OC(C)=O)C1OC(C)=O (centres undefined) too.
OUTPUT: label 0

INPUT: Now the same for CC(O)CN1CCN(CC(C)O)CC1.[I][Pt+2][I] (centres undefined)
OUTPUT: label 0

INPUT: What would you report for `CCCCCCCN` ?
OUTPUT: label 1

INPUT: Continue with `Cc1ccc(OC(=O)c2ccc(N)cc2O)cc1`
OUTPUT: label 1

* * *

Give growth inhibition for every item shown.
- Assay details: NCI Yeast Anticancer Drug Screen. Data for the sgs1 mgt1 strain (AID 161);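 further: 0% = growth of cultures given vehicle only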
- Conditions used: S. cerevisiae sgs1 mgt1 strain, at 5.0 µM (retest, dose inferred, filed as 0.5), active compounds read high
Compounds without any hit were thinned out: in the full panel of roughly 79,000, 15% have a hit.
Number in %, nothing else.

INPUT: Please report the recorded growth inhibition for `Cn1c2nc3ccccc3c-2cc2ccccc21` .
OUTPUT: 38

INPUT: Now consider `CC(C)c1ccc(C=Nc2ccc(SSc3ccc(N=Cc4ccc(C(C)C)cc4)cc3)cc2)cc1` .
OUTPUT: 57

INPUT: // query: CC1OC(OC2CC(O)(C(=O)CO)Cc3c(O)c4c(c(O)c32)C(=O)c2ccccc2C4=O)CC(N)C1O (stereo unspecified)
OUTPUT: 86

INPUT: Entry `CCCCCCCCCCCCCCCCBr` please
OUTPUT: -2

INPUT: Param item: O=C(NCCCCCCNC(=O)n1cc(F)c(=O)[nH]c1=O)NCCCOCCOCCOCCOCCOCCOCCOCCOCCOCCOCCOCCOCCOCCOCCOCCOCCOCCOCCOCCOCCOCCCNC(=O)C(O)C(O)C(OC1OC(CO)C(O)C(O)C1O)C(O)CO (stereo unspecified)
OUTPUT: 30

INPUT: Now the compound `Nc1ccccc1Oc1ccc(Cl)cc1Cl`
OUTPUT: -21

INPUT: Queued: `CCCCCCCN`
OUTPUT: -2

INPUT: Cool, now `CCN(CC)CCNc1n[n+]([O-])c2cc([N+](=O)[O-])ccc2[n+]1[O-]`
OUTPUT: 16

INPUT: # repeat for `C[N+]1(C)CCC(c2ccccc2)(c2ccccc2)C(=O)C1`
OUTPUT: -8

INPUT: Now the same for `CCCc1cc(=O)oc2c3c(c4c(c12)OC(C)(C)CC4)O[C@@H](C)[C@H](C)[C@H]3O`
OUTPUT: -1

INPUT: One more compound: `C=CCCC(=O)O`
OUTPUT: 5

INPUT: Next record, please: `Cc1cc([N+](=O)[O-])c(C)c2c1[nH]c1ccc(O)cc12`
OUTPUT: 23

INPUT: Lookup `c1ccc(-c2[nH]c3ccccc3c2-c2ccccn2)cc1`
OUTPUT: 4

INPUT: Same for CC(C)C1=C(O)C2=C(C(=O)C1=O)C1(C)CCCC(C)(C)C1CC2O (stereo unspecified)
OUTPUT: 48

INPUT: Here is the next compound: COC(=O)C1=COC(C)C2C[n+]3ccc4c([nH]c5ccccc54)c3CC12 (stereo unspecified)
OUTPUT: 17

INPUT: And the next one, O=C1CCC(c2ccccc2)(C2(c3ccccc3)CCC(=O)O2)O1 (stereo unspecified) ?
OUTPUT: 3

INPUT: Would you kindly repeat that for `Cc1nc2cc(Cl)ccc2n1-c1ccccc1` ?
OUTPUT: -7

INPUT: What do you have for COc1cccc2c1C(=O)c1c(O)c3c(c(O)c1C2=O)C[C@@](O)(C(C)=O)C[C@@H]3OC1CC(N(C)C)C(O)C(C)O1 (stereo partly specified) ?
OUTPUT: 99

INPUT: Now the same for `Clc1ccc(CNCCCNCc2ccc(Cl)cc2)cc1`
OUTPUT: 67

INPUT: Next compound: `O=c1[nH]c2cc([N+](=O)[O-])ccc2nc1/C=C(\O)c1ccc([N+](=O)[O-])cc1`
OUTPUT: 13

INPUT: Let us now turn to `CC(C)(C)c1ccc(-c2c3ccccc3cc3ccccc23)cc1`
OUTPUT: -5

* * *

Please provide measured growth inhibition for the entries that follow.
- Assay details: NCI Yeast Anticancer Drug Screen. Data for the mlh1 rad18 strain (AID 175)
- Conditions used: S. cerevisiae mlh1 rad18 strain growth inhibition; at 50.0 µM (retest, dose inferred, filed as 5.0); active compounds read high
This is part of a sample that, as a whole, favours compounds with a hit. Of some 79,000 tested, about 15% had one in any assay.
Report only the number, with the unit % understood.

INPUT: // growth inhibition lookup, key: `COc1cc(O)ccc1C(=S)SC`
OUTPUT: 87

INPUT: Thanks! And `CC(=O)Nc1ccc(S(=O)(=O)N/N=C/c2ccc(C)cc2)cc1` ?
OUTPUT: 7

INPUT: // same read-out, input: COC(=O)C1C(O)C(C)C(O)C(C)C=C(C)C2=C3C(=C(C)C(=O)c4c(O)c(c(C)c(OC(C)=O)c43)NC(=O)C(C)=C/C=C\C(C)C(O)C(C)C1O)OCO2 (centres undefined)
OUTPUT: -3

INPUT: Quick one: `Nc1ccc2c(ccc3ccc4ccccc4c32)c1`
OUTPUT: 97

INPUT: Here is the next molecule: `CC[C@](O)(CC(=O)O[C@H]1C(=O)O[C@@H]2C[C@H]3C(C)=CC(=O)[C@@H](O)[C@]3(C)[C@H]3[C@@]4(O)OC[C@]32[C@@H]1[C@@H](C)[C@H]4O)C(C)C`
OUTPUT: 97

INPUT: Next molecule: OCC1OC(Sc2ncc[nH]2)C(O)C(O)C1O (centres undefined)
OUTPUT: -14

INPUT: Try this molecule next: `CN(C)Cc1cc(CN(C)C)c(O)c(CN(C)C)c1`
OUTPUT: -9

INPUT: Moving on to `Cc1c2cc[n+](C)cc2c(C)c2c1[nH]c1ccccc12`
OUTPUT: 39

INPUT: Next: `O=C(O)c1c2ccccc2nc2[nH]c(=O)[nH]c(=O)c12`
OUTPUT: -4

INPUT: Input `NNc1ccc2ccccc2c1`
OUTPUT: 91

INPUT: Same again, this time with `CC[N+](C)(C)c1ccccc1`
OUTPUT: 82

INPUT: Lookup `C=CCNC(=O)c1ccccc1SC(C)=O`
OUTPUT: 99

INPUT: Can you check `N#CC(=C1C=CC(=NOC(=O)Nc2cccc3ccccc23)C=C1)c1ccccc1` next?
OUTPUT: 99

INPUT: Same lookup for `O/N=C(\CC(O)(C(F)(F)F)C(F)(F)F)c1cccc(Cl)c1` , please.
OUTPUT: 97

INPUT: And the next one, CC12CCC3c4ccc(O)cc4CCC3C1CCC2S (centres undefined) ?
OUTPUT: 95

INPUT: Further, for `O=C(/C=C/c1ccccn1)c1ccccc1` ?
OUTPUT: 29

INPUT: # iterate: `O=S(=O)(O)c1ccc2cc(N=Nc3c(O)ccc4ccccc34)ccc2c1`
OUTPUT: 10

INPUT: Same lookup for `NNc1c2ccccc2nc2ccccc12` , please.
OUTPUT: 86

INPUT: Another molecule: `Nc1ccc(N=Nc2ccccc2)c(N)n1`
OUTPUT: -25

INPUT: Repeat for the following molecule: `Cc1cc(=O)[nH]c2ccc(Cc3ccc(N)cc3)cc12`
OUTPUT: 22

INPUT: Entry C=C1CCC[C@@H]2[C@@](C)(Cc3cc(O)ccc3O)C(C)CC[C@]12C (some centres undefined) please
OUTPUT: 96

INPUT: Similarly, `CCN(CC)CCNc1nc(NCCN(CC)CC)c2nc(-c3ccccc3)c(-c3ccccc3)nc2n1` ?
OUTPUT: 98

INPUT: Likewise for `Cc1nc2cc(Cl)ccc2n1-c1ccccc1` ?
OUTPUT: 85

INPUT: Param item: `O=C1c2cccc(O)c2C(=O)c2c(O)cccc21`
OUTPUT: 66
